The reported numbers originate from PubChem BioAssay (NCI).

System: NCI-H522 lung
ASSAY_NAME: NCI-60 one-dose screen, 48 h
ASSAY_CONTEXT: 10 µM
This is part of a sample that, as a whole, favours compounds with a hit. Of some 83,000 tested, about 20% had one in any assay. Calls of active or inactive are those of the source. The calls were made as follows: active = growth percent below 10; inactive = the rest.
Respond with a class label; see YES for active, NO for inactive

Record request — test call for O=C(NNC(=O)c1ccncc1)Nc1ccc([N+](=O)[O-])cc1
NO

Dear all, I need the recorded test outcome for Nc1c(C(=O)Nc2ccccc2F)sc2nc3c(cc12)C(=O)CCC3 , thank you.
YES

Call for entry O=[N+]([O-])c1ccc(S(=O)(=O)OCCCCOS(=O)(=O)c2ccc([N+](=O)[O-])cc2)cc1 :
NO

# outcome recorded in this test, key = CN(C)CCCN(Cc1ccccc1O)C(=S)Nc1ccc(Cl)cc1
NO

// outcome(item) with item = CCOc1nc(-c2ccccc2)cc2c(O)c(C(=O)NCCCO)[nH]c(=O)c12
NO

Would you mind telling me which call this test gave CCc1ccc(-c2nnc(COc3ccc(-c4nc5ccccc5[nH]4)cc3OC)o2)cc1 ?
NO

For Cc1ccc(/C=C2\CN(Cc3cn(CCNc4ccnc5cc(Cl)ccc45)nn3)C/C(=C\c3ccc(C)cc3)C2=O)cc1 , what call appears in the results of this test?
YES

Returns: the outcome recorded for Cc1cc2cc3c(=O)[nH]c(=O)cc-3n(CC(O)C(O)C(O)CO)c2cc1C (stereo unspecified) in this assay.
NO

Called result for O=[N+]([O-])c1cc2ncccc2c2ncccc12
NO

// outcome(item) with item = COc1cc(C2C(C#N)=C(c3c[nH]c4ccccc34)Nc3nc(N)[nH]c(=O)c32)cc(OC)c1OC (stereo unspecified)
YES

Dear all, I need the recorded test outcome for CC(C)c1ncc(CO)n1Cc1c(Cl)cccc1Cl , thank you.
NO

Which outcome was assigned to Cc1ncc([N+](=O)[O-])n1CCOc1ccc(C(=O)/C=C/c2ccc(C(F)(F)F)cc2)cc1 in this test?
NO

Field: outcome | Entry: COc1cc(OC)cc(-c2ccc(-c3ccc(C(=N)N)cn3)o2)c1
YES

I'd appreciate the recorded outcome for C[C@]12CC[C@H]3[C@@H](CCC4=CC(=O)CC[C@@]43C)[C@@H]1CC[C@@H]2c1csc(N)n1 from this test.
NO

Per the assay record, what outcome was assigned to C=CCn1ccc(=O)nc1SC ?
NO

What outcome does the record of this test show for C[n+]1c(/C=C/c2c[nH]c3ccccc23)ccc2ccccc21 ?
NO

Each compound tested received a call. Report the one for C[C@@H]1C(=O)N(C[C@H](Cc2ccccc2)NC(=O)OCc2ccccc2)[C@]1(Cc1ccccc1)C(=O)OCc1ccccc1 .
NO

Please share the test call associated with CC(=O)Nc1nc(C)c(C(=O)N/N=C/c2cccn2C)s1 .
NO

How was COc1ccc(-c2cc(/C=C3\C(=O)Nc4cc(Cl)ccc43)[nH]n2)cc1 classified in this test?
YES

How was CCCCOCC(=O)NC(NP(=O)(N(C)C)N(C)C)C(Cl)(Cl)Cl (stereo unspecified) classified in this test?
NO

Test call, this compound: COc1ccc(-c2csc(-c3cc(Cl)cc(Cl)c3Cl)n2)cc1
NO

I'd appreciate the recorded outcome for CC(=O)N(O)c1ccc(/C=C/c2ccccc2)cc1 from this test.
NO

Check the results log: what was the call for Cc1ccc(NS(=O)(=O)c2ccccc2)c(NS(=O)(=O)c2ccccc2)c1 ?
NO

Hi, do you know how O=C(Nc1ccc(OCc2nnc(-c3ccccc3)o2)c(F)c1)Nc1ccc(Cl)c(Cl)c1 came out in this test?
NO

# lookup: test call for O=C(OCc1ncc(-c2ccc(C(F)(F)F)cc2)c(NC2CCCCCC2)n1)c1c(F)c(F)c(F)c(F)c1F
NO

Lab log entry: COc1ccc(S(=O)(=O)Nc2ccc(OCc3nnc(-c4ccc(Cl)cc4)o3)c(F)c2)cc1 — outcome as called in the assay?
NO

// param item: Cc1cc(C)c2c(Nc3ncnc4c3sc3nc(C)cc(C)c34)n[nH]c2n1 ; yields the recorded call
NO

Can you look up the reported call for Nc1nsc(C(=O)c2ccc(O)cc2)n1 for me?
NO

Recorded test call requested for O=c1oc2c3ccc4cnccc4c3[nH]c2c2ccccc12
YES

How did this test come out for COc1cccc(C(=O)NNc2nc(N3CCN(C4CCCCC4)CC3)nc(N3CCN(C(c4ccccc4)c4ccccc4)CC3)n2)c1 ?
NO

So what was the verdict on COc1ccc(-c2n/c(=C\c3c(O)[nH]c4ccccc34)cc3c2=Nc2ccccc2-3)cc1 in this test?
NO

Please share the test call associated with Cc1ccc(S(=O)(=O)Nc2cccc3[nH]c(C(F)(F)F)nc23)cc1 .
YES

Could you kindly confirm the outcome this assay logged for CC[C@@]1(C(N)=O)CC2C=CC1C2 (stereo partly specified) ?
NO

State the result this test recorded for COc1cccc2c1O/C(=C\c1ncc([N+](=O)[O-])n1C)C2=O .
YES

Test call for this compound, please: COc1cccc(-c2nnc(COc3ccc(-c4nc5ccc(C)cc5[nH]4)cc3OC)o2)c1
NO

Which outcome did this test record for the compound Oc1ccc(/C=N\Nc2ccccn2)c(O)c1 ?
NO

###

Test system: SF-268 CNS
ASSAY_NAME: NCI-60 one-dose screen, 48 h (100 = growth as untreated, 0 = no growth, -100 = all killed)
ASSAY_CONTEXT: 10 µM
Compounds without any hit were thinned out: in the full panel of roughly 83,000, 20% have a hit. Activity calls are given as the source filed them. The calls were made as follows: active = growth percent below 10; inactive = the rest.
PARAMETER_MEASURED: growth

For the compound Cc1cc(O)c(C2=NN(c3ccc(S(N)(=O)=O)cc3)C(c3ccc(N(C)C)cc3)C2)c(C)c1Cl (configuration not stated) , what growth is on record?
72.1% (inactive)

Item under review: COCCOC(=O)NC(=O)Nc1ccc(/C(=N/O)c2ccc(Cl)cc2)cc1 . Reported growth?
43.2% (inactive)

I'd like to know its growth. The compound in question is Cc1ccc2nc(-c3ccc(OCC(=O)N=Nc4c(O)[nH]c5ccccc45)cc3)[nH]c2c1
102% (inactive)

What growth value was documented for this compound, CCOCC[P+](c1ccccc1)(c1ccccc1)c1ccccc1 ?
61.9% (inactive)

# query: growth of entry CCOc1nc(-c2ccccc2)cc2c(O)c(C(=O)NCCCO)[nH]c(=O)c12
103% (inactive)

Please report the recorded growth for O=C(CCCC(=O)N/N=C/c1cc(Cl)ccc1O)N/N=C\c1cc(Cl)ccc1O .
26.4% (inactive)

Fill blank: measured growth of the compound COc1cc(Nc2ccnc(N3CCN(c4ccnc5cc(Cl)ccc45)CC3)n2)cc(OC)c1 is ____.
27.7% (inactive)

###

System: SF-268 CNS
ASSAY_NAME: NCI-60 one-dose screen, 48 h (100 = growth as untreated, 0 = no growth, -100 = all killed)
ASSAY_CONTEXT: 10 µM
The panel holds about 83,000 compounds, 20% with a hit somewhere; the sample as a whole holds those more often. Calls of active or inactive are those of the source. Rule for the calls: active = growth percent below 10; inactive = the rest.
For each entry below, report its growth value.

What value of growth has been reported for the following compound? Cc1ccc([P+](Cc2ccccc2)(c2ccccc2)c2ccccc2)cc1
28.4% (inactive)

Return reported growth; argument: COc1cc(-c2nc3ccc(C)cc3[nH]2)ccc1OCc1nnc(-c2ccc(CC(C)C)cc2)o1
105% (inactive)

Consider the compound shown here: CCOC(=O)Nc1ccc2c(c1)C(=O)N(CCOC)c1ccccc1O2 What is its recorded growth?
56.9% (inactive)

###

Test system: HCT-15 colon
ASSAY_NAME: NCI-60 one-dose screen, 48 h (100 = growth as untreated, 0 = no growth, -100 = all killed)
ASSAY_CONTEXT: 10 µM
Compounds without any hit were thinned out: in the full panel of roughly 83,000, 20% have a hit.
PARAMETER_MEASURED: growth (%)
Write the answer as a number in %, unit excluded.

What measured growth is associated with COc1cccc2c1O/C(=C\c1ccc([N+](=O)[O-])s1)C2=O on HCT-15 colon?
8.57

Param readout = growth; param system = HCT-15 colon; param query = Cc1nc2ccc(-n3c(-c4ccc(Cl)cc4)nc4ccccc4c3=O)cc2n1Cc1ccccc1 ; response: value
77

Request - read-out growth | tested on HCT-15 colon | molecule O=c1oc2c3ccc4cnccc4c3[nH]c2c2ccccc12
80.9

Notebook: pull reported growth for HCT-15 colon, entry CC(=O)[C@H]1CC[C@H]2[C@@H]3CC[C@@H]4CC=C(C=O)C[C@]4(C)[C@H]3CC[C@]12C
96.7

Given the entry COc1cc(C2c3cc4c(cc3C(O)C(CO)C2CO)OCO4)cc(OC)c1OC (configuration not stated) , what growth was observed with HCT-15 colon?
61.2

GET /values?readout=growth&system=HCT-15 colon&item= CCCCCCCCCCCC(c1ccccc1)N(C)C (configuration not stated)
95.6

// fetch HCT-15 colon growth for COc1cc(-c2nc3ccccc3[nH]2)ccc1OCC(=O)N=Nc1c(O)[nH]c2ccccc12
99.4

Give HCT-15 colon growth for COc1ccc(S(=O)(=O)Nc2cc(/C=C\c3cc(OC)c(OC)c(OC)c3)ccc2OC)cc1
7.86

Lab note: need growth for Cc1ccc2c3c(cccc13)-c1ccccc1C2=O on HCT-15 colon, anyone have it?
85

What reported growth corresponds to Cc1[nH]nc2c(=S)[nH]c(=O)[nH]c12 on HCT-15 colon?
103

Quick check: growth on HCT-15 colon, item CS(=O)(=O)Nc1ccc(Nc2c3ccccc3nc3cc(Cl)ccc23)cc1 ?
39.6

Give growth (HCT-15 colon) of the following molecule: O=NN(CCCl)C(=O)Nc1ccc(NC(=O)N(CCCl)N=O)cc1
94.5

Any idea what growth came out for COc1ccc(N2CCN(c3nc(-c4ccccc4)c(C#N)c(=O)[nH]3)CC2)cc1 on HCT-15 colon?
99.4

Please provide the recorded growth for C#CCn1c(-c2cccc(OCCCCl)c2)nc2c1c(=O)n(C)c(=O)n2C , tested on HCT-15 colon.
86.9

Give recorded growth with HCT-15 colon for the following molecule: COc1ccc(C2=NNC(c3sc(Cl)nc3Cl)C2)cc1 (configuration not stated)
34.2

Fill in the recorded growth for this molecule, with HCT-15 colon as test system: COc1cc(OC)cc(-c2ccc(-c3ccc(C(=N)N)cn3)o2)c1
6.84

API: value(readout= growth, system= HCT-15 colon, query= COc1cc(-c2cc(-c3cc(OC)c(OC)c(OC)c3)nc3nc(N)[nH]c(=O)c23)ccc1Oc1ccnc2cc(Cl)ccc12 )
14.6
